- PROTOCOL_TEXT: thioesterase activity (production of TNB at 412 nm)
- Type: biochemical
- CONDITION_CONTEXT: crude cell extract; 200 μM substrate; expressed from pCA24N
Specific activities of selected thioesterases on Butyryl-CoA values, listed per item
Numeric only. Scale: μmol/mg protein/min

Field: example entries. Status: answers known.
MOLECULE | OBSERVED
TesA: E. coli multifunctional acyl-CoA thioesterase I and protease I and lysophospholipase L1 (protein, UniProt P0ADA1 27-208, looked up) Thioesterase 1/protease …: ADTLLILGDSLSAGYRMSASAAWPALLNDKWQSKTSVVNASISGDTSQQGLARLPALLKQHQPRWVLVELGGNDGLRGFQPQQTEQTLRQILQDVKAANAEPLLMQIRLPANYGRRYNEAFSAIYPKLAKEFDVPLLPFFMEEVYLKPQWMQDDGIHPNRDAQPFIADWMAKQLQPLVNHDS | 0.049
YdiI: E. coli Acyl-CoA thioesterase (protein, UniProt P77781 1-136, looked up) 1,4-dihydroxy-2-naphthoyl-CoA …: MIWKRKITLEALNAMGEGNMVGFLDIRFEHIGDDTLEATMPVDSRTKQPFGLLHGGASVVLAESIGSVAGYLCTEGEQKVVGLEINANHVRSAREGRVRGVCKPLHLGSRHQVWQIEIFDEKGRLCCSSRLTTAIL | 0.0917

Turning to the following molecule.
Ask: Quick check: Specific activities of selected thioesterases on Butyryl-CoA of FadM: E. coli long-chain acyl-CoA thioesterase (protein, UniProt P77712 1-132, looked up) Long-chain acyl-CoA …: MQTQIKVRGYHLDVYQHVNNARYLEFLEEARWDGLENSDSFQWMTAHNIAFVVVNININYRRPAVLSDLLTITSQLQQLNGKSGILSQVITLEPEGQVVADALITFVCIDLKTQKALALEGELREKLEQMVK ?
Reply: 0.027
